Biological target: human TRPM8 (Homo sapiens)
Construct: expressed in transfected cells; host or cells: Chinese hamster ovary (CHO) cells, T-REx tetracycline-inducible expression system (Invitrogen); co-transfected with pcDNA3.1 aequorin
Sequence (Q7Z2W7 whole entry): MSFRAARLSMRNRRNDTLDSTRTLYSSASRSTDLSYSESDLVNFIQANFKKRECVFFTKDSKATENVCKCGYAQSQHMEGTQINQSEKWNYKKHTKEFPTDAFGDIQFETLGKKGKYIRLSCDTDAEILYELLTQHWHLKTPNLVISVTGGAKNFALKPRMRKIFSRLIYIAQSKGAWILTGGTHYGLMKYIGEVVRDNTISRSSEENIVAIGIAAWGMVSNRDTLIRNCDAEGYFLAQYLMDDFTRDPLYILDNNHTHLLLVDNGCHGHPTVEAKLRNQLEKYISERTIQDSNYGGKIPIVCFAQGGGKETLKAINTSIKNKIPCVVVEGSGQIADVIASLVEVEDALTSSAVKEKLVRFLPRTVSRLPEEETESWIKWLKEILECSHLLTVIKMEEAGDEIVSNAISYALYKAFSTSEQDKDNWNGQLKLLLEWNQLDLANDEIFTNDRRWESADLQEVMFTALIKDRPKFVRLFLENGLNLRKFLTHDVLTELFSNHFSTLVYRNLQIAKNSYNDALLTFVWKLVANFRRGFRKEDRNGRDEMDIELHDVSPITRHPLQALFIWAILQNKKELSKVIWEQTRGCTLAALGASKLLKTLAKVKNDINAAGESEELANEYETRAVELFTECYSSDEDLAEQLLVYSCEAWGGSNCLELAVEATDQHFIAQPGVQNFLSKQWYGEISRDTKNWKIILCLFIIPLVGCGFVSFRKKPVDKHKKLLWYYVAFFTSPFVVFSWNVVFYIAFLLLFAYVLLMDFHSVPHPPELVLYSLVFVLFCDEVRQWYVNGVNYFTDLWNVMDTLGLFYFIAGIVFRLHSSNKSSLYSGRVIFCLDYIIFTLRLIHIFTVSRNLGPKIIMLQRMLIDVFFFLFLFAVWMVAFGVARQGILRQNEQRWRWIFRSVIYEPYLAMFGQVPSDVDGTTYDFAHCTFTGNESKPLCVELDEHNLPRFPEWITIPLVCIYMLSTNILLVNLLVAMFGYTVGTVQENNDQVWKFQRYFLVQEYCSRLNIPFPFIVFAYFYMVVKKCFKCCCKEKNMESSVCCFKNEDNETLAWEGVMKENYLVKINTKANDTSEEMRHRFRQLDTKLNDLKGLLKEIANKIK
Test: Luminescence readout assay for measuring intracellular calcium (aequorin, CHO cells expressing human TRPM8; icilin, L-menthol or cold activation)
Assay type: cell-based
Conditions: CHO cells expressing human TRPM8, icilin activation (1 μM), aequorin luminescence; read-out: hTRPM8 IC50
pIC50: −log10 of the molar value. Structures can show the parent of a compound that is named as a salt.
Param threshold (7) applies to pIC50; output condition met when value >= threshold, condition not met when value < threshold.

For orientation, consider the following solved cases.
COMPOUND	TESTED TARGET	ANSWER LABEL
O=C(NC1(c2ccc(OC(F)(F)F)cc2)CCOc2cccnc21)c1ccc2[nH]c(=O)oc2c1 (centres unmarked) [Example 22]	human TRPM8 (Homo sapiens)	condition met
CN(C)C(=O)c1ccc(-c2ccc([C@@]3(NC(=O)c4ccc(F)cc4)CCOc4cccnc43)cc2)cc1 [Example 137]	human TRPM8 (Homo sapiens)	condition not met
O=S(=O)(N[C@]1(c2ccc(OC(F)(F)F)c(F)c2)CCOc2cccnc21)c1ccccc1 [Example 76, 2,2,2-trifluoroacetate]	human TRPM8 (Homo sapiens)	condition not met
O=C(N[C@]1(c2ccc(OC(F)(F)F)cc2)CCOc2cccnc21)c1c[nH]c2ccccc12 [Example 234]	human TRPM8 (Homo sapiens)	condition met
O=C(NS(=O)(=O)c1ccccc1)c1ccc(C(=O)N[C@]2(c3ccc(OC(F)(F)F)c(F)c3)CCOc3cccnc32)nc1 [Example 307, 2,2,2-trifluoroacetate]	human TRPM8 (Homo sapiens)	condition not met

API: above_or_equal(metric=pIC50, cutoff=7) for item COC(=O)c1c(C)cc(C(=O)N[C@]2(c3ccc(OC(F)(F)F)c(F)c3)CCOc3cccnc32)cc1C [Example 181]
condition met

API: above_or_equal(metric=pIC50, cutoff=7) for item N#Cc1ccc(-c2ccc([C@@]3(NC(=O)c4ccc5oc(=O)[nH]c5c4)CCOc4cccnc43)cc2)cc1 [Example 155, 2,2,2-trifluoroacetate]
condition met

API: above_or_equal(metric=pIC50, cutoff=7) for item COc1ncc(-c2ccc([C@@]3(NC(=O)c4ccc(F)cc4)CCOc4cccnc43)cc2)cn1 [Example 127]
condition not met

API: above_or_equal(metric=pIC50, cutoff=7) for item O=C(N[C@]1(c2ccc(OC(F)(F)F)cc2)CCOc2cccnc21)c1c[nH]c(=O)c2ccccc12 [Example 272, formate]
condition not met

API: above_or_equal(metric=pIC50, cutoff=7) for item Cc1nnc(-c2cccc(-c3ccc([C@@]4(NC(=O)c5ccc(F)cc5)CCOc5cccnc54)cc3)c2)o1 [Example 150]
condition not met

API: above_or_equal(metric=pIC50, cutoff=7) for item O=C(N[C@]1(c2ccc(OC(F)(F)F)c(F)c2)CCOc2cccnc21)c1ccc(C(O)C(F)(F)F)cc1 (mixture of isomers) [Example 159]
condition met
